- TARGET: BChE (EC 3.1.1.8, equine serum) (Equus caballus, UniProt P81908)
- Sequence (P81908 whole entry): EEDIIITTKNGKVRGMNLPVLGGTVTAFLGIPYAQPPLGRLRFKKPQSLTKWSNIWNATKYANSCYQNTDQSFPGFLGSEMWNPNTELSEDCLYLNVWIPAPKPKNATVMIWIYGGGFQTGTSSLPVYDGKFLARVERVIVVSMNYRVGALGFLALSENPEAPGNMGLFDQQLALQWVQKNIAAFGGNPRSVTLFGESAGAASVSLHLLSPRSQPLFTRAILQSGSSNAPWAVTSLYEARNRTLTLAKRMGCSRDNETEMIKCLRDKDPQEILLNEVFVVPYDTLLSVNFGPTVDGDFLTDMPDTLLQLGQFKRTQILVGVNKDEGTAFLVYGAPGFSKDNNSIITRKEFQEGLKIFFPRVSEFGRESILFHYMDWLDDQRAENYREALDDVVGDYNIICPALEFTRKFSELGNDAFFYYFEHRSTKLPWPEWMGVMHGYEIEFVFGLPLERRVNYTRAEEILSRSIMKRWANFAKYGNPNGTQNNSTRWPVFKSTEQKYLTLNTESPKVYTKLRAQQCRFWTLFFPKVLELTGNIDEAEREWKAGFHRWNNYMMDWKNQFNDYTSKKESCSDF
- METHOD SUMMARY: In vitro ChE activity assay (modified Ellman), BChE
- Format: biochemical
- MEASUREMENT CONDITIONS: BChE IC50
pIC50: −log10 of the molar value.
Threshold check on pIC50: at or above 5 gives MET, strictly below gives NOT MET.

SMILES REPRESENTATION | CLASS LABEL
CNC(=O)Oc1ccccc1/C=C/c1ccc(C)s1 | MET
CNC(=O)Oc1ccc(F)cc1/C=C/c1ccc(C)s1 | NOT MET
CCN(C)C(=O)Oc1cccc(/C=C/c2cccs2)c1 | MET
CNC(=O)Oc1ccc(Cl)cc1C=Cc1ncc(C)s1 | NOT MET
CCN(C)C(=O)Oc1ccccc1/C=C/c1ccc(C)s1 | NOT MET

---

- TARGET: BChE (EC 3.1.1.8, equine serum) (Equus caballus)
- METHOD SUMMARY: In vitro ChE activity assay (modified Ellman), BChE
- Type: biochemical
- MEASUREMENT CONDITIONS: read-out: BChE IC50
Rule: IC50 below 1000 nM gives label 1, anything at or above gives label 0.

SMILES REPRESENTATION | TARGET | CLASS LABEL
O=C(Oc1cccc(/C=C/c2cccs2)c1)N1CCOCC1 | BChE (EC 3.1.1.8, equine serum) (Equus caballus) | label 0
CNC(=O)Oc1ccc(OC)cc1/C=C/c1cccs1 | BChE (EC 3.1.1.8, equine serum) (Equus caballus) | label 0
CCN(C)C(=O)Oc1cc(OC)ccc1/C=C/c1cccs1 | BChE (EC 3.1.1.8, equine serum) (Equus caballus) | label 0
CNC(=O)Oc1ccccc1/C=C/c1ccc(C)s1 | BChE (EC 3.1.1.8, equine serum) (Equus caballus) | label 0
CNC(=O)Oc1ccc(F)cc1/C=C/c1cccs1 | BChE (EC 3.1.1.8, equine serum) (Equus caballus) | label 0
O=C(Oc1ccccc1/C=C/c1cccs1)N1CCOCC1 | BChE (EC 3.1.1.8, equine serum) (Equus caballus) | label 1
Cc1ccc(OC(=O)N2CCOCC2)c(/C=C/c2cccs2)c1 | BChE (EC 3.1.1.8, equine serum) (Equus caballus) | label 1
CNC(=O)Oc1ccc(Cl)cc1/C=C/c1ccc(C)s1 | BChE (EC 3.1.1.8, equine serum) (Equus caballus) | label 0
CCN(C)C(=O)Oc1ccc(F)cc1/C=C/c1cccs1 | BChE (EC 3.1.1.8, equine serum) (Equus caballus) | label 0
O=C(Oc1ccc(F)cc1/C=C/c1cccs1)N1CCOCC1 | BChE (EC 3.1.1.8, equine serum) (Equus caballus) | label 1
CCN(C)C(=O)Oc1ccccc1/C=C/c1ccc(C)s1 | BChE (EC 3.1.1.8, equine serum) (Equus caballus) | label 0
CCN(C)C(=O)Oc1ccc(C)cc1/C=C/c1cccs1 | BChE (EC 3.1.1.8, equine serum) (Equus caballus) | label 0
CCN(C)C(=O)Oc1ccccc1/C=C/c1cccs1 | BChE (EC 3.1.1.8, equine serum) (Equus caballus) | label 1
CCN(C)C(=O)Oc1cccc(/C=C/c2cccs2)c1 | BChE (EC 3.1.1.8, equine serum) (Equus caballus) | label 0
CNC(=O)Oc1ccccc1/C=C/c1cccs1 | BChE (EC 3.1.1.8, equine serum) (Equus caballus) | label 1
